B1: DnaJ homolog subfamily C member 5, residues 16 to 77; numbered along this chain, Q9H3Z4 (parent)
chain: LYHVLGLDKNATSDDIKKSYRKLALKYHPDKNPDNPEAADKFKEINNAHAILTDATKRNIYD

# Variants of: B1
# PROCEDURE_SUMMARY: abundance fitness (aPCA) (normalised: wild type 0, dead -1); higher = more abundant; growth selection in yeast, the domain comes from the species named
# CONDITION_LABEL: Homo sapiens
Classes are defined on abundance fitness with ranges band 1 (below -0.7), band 2 (-0.7 to below -0.05), band 3 (-0.05 or more)

Query string: Would you mind sorting `N46W` into the appropriate category?
Result string: band 1

Query string: Would you mind sorting `I16H` into the appropriate category?
Result string: band 1

Query string: Would you mind sorting `T56L` into the appropriate category?
Result string: band 2

Query string: Would you mind sorting `L1M` into the appropriate category?
Result string: band 3

Query string: Would you mind sorting `K17D` into the appropriate category?
Result string: band 2

Query string: Would you mind sorting `L52H` into the appropriate category?
Result string: band 1
